# MEASURED_TARGET: UDP-3-O-acyl-N-acetylglucosamine deacetylase (Pseudomonas aeruginosa (strain ATCC 15692 / PAO1 / 1C / PRS 101 / LMG12228), UniProt P47205)
# Sequence (P47205 whole entry): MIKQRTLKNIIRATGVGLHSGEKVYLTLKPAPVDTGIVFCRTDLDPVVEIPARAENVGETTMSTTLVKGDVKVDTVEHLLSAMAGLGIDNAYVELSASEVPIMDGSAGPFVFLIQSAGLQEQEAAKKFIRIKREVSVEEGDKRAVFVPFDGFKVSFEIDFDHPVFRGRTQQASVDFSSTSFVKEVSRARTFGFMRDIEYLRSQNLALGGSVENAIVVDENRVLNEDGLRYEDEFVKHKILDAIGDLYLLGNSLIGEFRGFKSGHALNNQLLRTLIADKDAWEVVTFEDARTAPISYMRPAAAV
# ASSAY_OVERVIEW: Inhibition of histidine-tagged Pseudomonas aeruginosa LpxC (1-303) expressed in Escherichia coli BL21 (DE3) using UDP-3-O-(R-3-hydroxydecanoyl)-N-acetylglucosamine as substrate measured after 60 mins by LC-MS/MS analysis
The following ranges of IC50 define the classes used here: low interval: < 5 µM; middle interval: ≥ 5 µM and < 20 µM; high interval: ≥ 20 µM

[[record]]
compound_string = "N[C@H](CO)C(=O)N1CCC(Cc2ccc(CCc3ccccc3)cc2)CC1"
class = "low interval"

[[record]]
compound_string = "N[C@H](CC(=O)O)C(=O)Nc1cccc(OC(F)(F)F)c1"
class = "middle interval"

[[record]]
compound_string = "N[C@H](CO)C(=O)N1CCC(Cc2ccc(C#Cc3ccccc3)cc2)CC1"
class = "low interval"

[[record]]
compound_string = "CS(=O)(=O)CC[C@@H](N)C(=O)Nc1cccc(OC(F)(F)F)c1"
class = "middle interval"

[[record]]
compound_string = "NC[C@@H](N)C(=O)Nc1cccc(OC(F)(F)F)c1"
class = "high interval"


Q: Hello team, could you let me know which band the following compound falls into: N[C@H](CO)C(=O)N1CCC(Cc2ccccc2)CC1
Result: high interval

Q: Hello team, could you let me know which band the following compound falls into: CS(=O)(=O)NC[C@@H](N)C(=O)Nc1cccc(OC(F)(F)F)c1
Result: high interval

====

# MEASURED_TARGET: UDP-3-O-acyl-N-acetylglucosamine deacetylase (Pseudomonas aeruginosa (strain ATCC 15692 / PAO1 / 1C / PRS 101 / LMG12228))
# ASSAY_OVERVIEW: Inhibition of histidine-tagged Pseudomonas aeruginosa LpxC (1-303) expressed in Escherichia coli BL21 (DE3) using UDP-3-O-(R-3-hydroxydecanoyl)-N-acetylglucosamine as substrate measured after 60 mins by LC-MS/MS analysis
The following compounds are listed with their measured IC50 values.

// below: answered compounds
[[record]]
compound_string = "CS(=O)(=O)C[C@@H](N)C(=O)Nc1cccc(OC(F)(F)F)c1"
measured_attribute = "IC50"
readout_value = "> 100000 nM"

[[record]]
compound_string = "NCC(=O)Nc1cccc(OC(F)(F)F)c1"
measured_attribute = "IC50"
readout_value = "41900 nM"

[[record]]
compound_string = "N[C@H](CO)C(=O)N1CCC(Cc2ccc(C#Cc3ccc(CO)cc3)cc2)CC1"
measured_attribute = "IC50"
readout_value = "22.1 nM"


// moving on: another record for IC50
Q: # input compound: N[C@H](CO)C(=O)N1CCC(Cc2ccc(-c3ccccc3)cc2)CC1 ; wanted: its IC50
Result: 660 nM

Data provenance: ChEMBL document CHEMBL4673300
